# study.system: δ opioid receptor (Homo sapiens (Human))
# experiment.notes: δ-opioid receptor [35S]GTPγS functional assay, HEK-293 or CHO cells
# condition.parameters: GTPγS
# Method: δ-Opioid Receptor Functional Assay Procedures: Functional [^35S]GTPγS binding assays were conducted as follows. […] Fifty μl/well scintillation cocktail (Perkin Elmer, Shelton, Conn.) was added and plates were counted in a Packard Top-count for 1 min/well. […] In TABLE 2, activity response of certain Compounds of the Invention to the μ-, δ- and κ-opioid receptors was determined as described above for functional assays using HEK-293 or CHO cells.
observation.type: EC50 (nM)
Output spec: scalar in nM, unitless text.

State its EC50 on δ opioid receptor (Homo sapiens (Human)): "O=C(O)CN1C[C@H]2[C@H]3Cc4ccc(O)cc4[C@@]2(CCN3CC2CC2)CC1=O"
2.41

Moving on to "O=C1C[C@]23CCN(CC4CC4)[C@H](Cc4ccc(O)cc42)[C@@H]3CN1"
8.7

Moving on to "Oc1ccc2c(c1)[C@@]13CCNC[C@H]1[C@@H](C2)N(CC1CC1)CC3"
36.5

Moving on to "NC(=O)CN1C[C@H]2[C@H]3Cc4ccc(O)cc4[C@@]2(CCN3CC2CC2)CC1=O"
9.06

Moving on to "O=C1C[C@]23CCN(CC4CC4)[C@H](Cc4ccc(O)cc42)[C@@H]3CN1Cc1ccc(O)cc1"
4.39

====

# study.system: UniProt P35372
# experiment.notes: μ-opioid receptor [35S]GTPγS functional assay, HEK-293 or CHO cells
# Format: biochemical
# condition.parameters: relative to DAMGO
observation.type: Emax (%)
Output spec: scalar in %, unitless text.

State its Emax on UniProt P35372: "Oc1ccc2c(c1)[C@@]13CCNC[C@H]1[C@@H](C2)N(CC1CC1)CC3"
61

Moving on to "COc1ccc2c(c1)[C@]13CCN(CC4CC4)[C@H](C2)[C@@H]1CNC(=O)C3"
62.7

Moving on to "COc1ccc2c(c1)[C@@]13CCNC[C@H]1[C@@H](C2)N(CC1CC1)CC3"
66.7

Moving on to "O=C1C[C@]23CCN(CC4CC4)[C@H](Cc4ccc(O)cc42)C3=CN1Cc1ccc(O)cc1"
28

====

Would you kindly list Ki for each of these compounds?
# study.system: δ opioid receptor (Homo sapiens (Human), UniProt P41143)
# Sequence (P41143 whole entry, looked up): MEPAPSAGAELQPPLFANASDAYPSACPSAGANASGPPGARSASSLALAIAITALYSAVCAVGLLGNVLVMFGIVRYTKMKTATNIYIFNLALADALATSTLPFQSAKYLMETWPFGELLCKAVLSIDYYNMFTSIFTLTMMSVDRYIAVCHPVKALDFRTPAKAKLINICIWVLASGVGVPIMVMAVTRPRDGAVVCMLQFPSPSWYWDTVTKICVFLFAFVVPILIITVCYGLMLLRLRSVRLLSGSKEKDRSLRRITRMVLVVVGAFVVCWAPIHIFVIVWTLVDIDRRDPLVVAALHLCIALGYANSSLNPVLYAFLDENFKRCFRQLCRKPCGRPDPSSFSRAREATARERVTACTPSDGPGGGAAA
# experiment.notes: δ-opioid receptor radioligand dose-displacement binding assay ([3H]-Naltrindole)
Output spec: scalar in nM, unitless text.

Looking for the measured Ki of "NC(=O)CN1C[C@H]2[C@H]3Cc4ccc(O)cc4[C@@]2(CCN3CC2CC2)CC1=O" , can you help?
49

Moving on to "Oc1ccc2c(c1)[C@@]13CCNC[C@H]1[C@@H](C2)N(CC1CC1)CC3"
174

Moving on to "O=C1C[C@]23CCN(CC4CC4)[C@H](Cc4ccc(O)cc42)[C@@H]3CN1"
15

Moving on to "O=C1C[C@]23CCN(CC4CC4)[C@H](Cc4ccc(O)cc42)[C@@H]3CN1Cc1ccc(O)cc1"
22.9

Moving on to "O=C(O)CN1C[C@H]2[C@H]3Cc4ccc(O)cc4[C@@]2(CCN3CC2CC2)CC1=O"
82.2

====

# study.system: UniProtKB P41143
# experiment.notes: δ-opioid receptor [35S]GTPγS functional assay, HEK-293 or CHO cells
# Format: biochemical
# condition.parameters: relative to met-enkephalin
Rule: label 1 for Emax not less than 90%, label 0 for anything less.

I'd appreciate it if you could say whether "O=C(O)CN1C[C@H]2[C@H]3Cc4ccc(O)cc4[C@@]2(CCN3CC2CC2)CC1=O" has Emax at least equal to 90%.
label 1

Moving on to "NC(=O)CN1C[C@H]2[C@H]3Cc4ccc(O)cc4[C@@]2(CCN3CC2CC2)CC1=O"
label 1

Moving on to "Oc1ccc2c(c1)[C@@]13CCNC[C@H]1[C@@H](C2)N(CC1CC1)CC3"
label 0

Moving on to "O=C1C[C@]23CCN(CC4CC4)[C@H](Cc4ccc(O)cc42)[C@@H]3CN1Cc1ccc(O)cc1"
label 0

Moving on to "O=C1C[C@]23CCN(CC4CC4)[C@H](Cc4ccc(O)cc42)[C@@H]3CN1"
label 0

====

# study.system: μ-opioid receptor (Homo sapiens (Human))
# experiment.notes: μ-opioid receptor [35S]GTPγS functional assay, U-2 OS cells
# Assay type: biochemical
# condition.parameters: relative to DAMGO
# Description: μ-Opioid Receptor Functional Assay Procedures: [^35S]GTPγS functional assays were conducted using freshly thawed μ-receptor membranes prepared in-house from a cell line expressing recombinant μ opioid receptor in a HEK-293, CHO or U-2 OS cell background, or purchased from a commercial source (Perkin Elmer, Shelton, Conn.; or DiscovRx, Fremont, Calif.). […] Data were analyzed using the sigmoidal dose-response curve fitting functions in GraphPad PRISM v. […]
Would you kindly list Emax for each of these compounds?
Output spec: scalar in %, unitless text.

Looking for the measured Emax of "O=C(O)CN1CC[C@]23CCN(CC4CC4)[C@H](Cc4ccc(O)cc42)[C@@H]3C1" , can you help?
27

Moving on to "O=C1C[C@]23CCN(CC4CC4)[C@H](Cc4ccc(O)cc42)[C@@H]3CN1"
40.7

Moving on to "NC(=O)CN1CC[C@]23CCN(CC4CC4)[C@H](Cc4ccc(O)cc42)[C@@H]3C1"
39.3

Moving on to "Oc1ccc(CN2CC[C@]34CCN(CC5CC5)[C@H](Cc5ccc(O)cc53)[C@@H]4C2)cc1"
47

Moving on to "C[C@H](N)C(=O)N1CC[C@]23CCN(CC4CC4)[C@H](Cc4ccc(O)cc42)[C@@H]3C1"
35.3

Moving on to "NC(=O)CN1C[C@H]2[C@H]3Cc4ccc(O)cc4[C@@]2(CCN3CC2CC2)CC1=O"
39

====

# study.system: μ-opioid receptor (Homo sapiens (Human), UniProt P35372)
# experiment.notes: μ-opioid receptor [35S]GTPγS functional assay, HEK-293 or CHO cells
# Format: biochemical
# condition.parameters: GTPγS
observation.type: pEC50
The quantity pEC50 is defined as the negative base-10 logarithm of the molar concentration.

Looking for the measured pEC50 of O=C1C[C@]23CCN(CC4CC4)[C@H](Cc4ccc(O)cc42)[C@@H]3CN1 [Compound 7] , can you help?
7.88

Moving on to COc1ccc(CN2CC[C@]34CCN(CC5CC5)[C@H](Cc5ccc(OC)cc53)[C@@H]4C2)cc1 [Compound 9]
6.14

Moving on to Oc1ccc(CN2CC[C@]34CCN(CC5CC5)[C@H](Cc5ccc(O)cc53)[C@@H]4C2)cc1 [Compound 12]
8.16

Moving on to C[C@H](N)C(=O)N1CC[C@]23CCN(CC4CC4)[C@H](Cc4ccc(O)cc42)[C@@H]3C1 [Compound 14]
8.34

Moving on to COc1ccc2c(c1)[C@]13CCN(CC4CC4)[C@H](C2)[C@@H]1CNC(=O)C3 [Compound 3]
6.07

Moving on to O=C1C[C@]23CCN(CC4CC4)[C@H](Cc4ccc(O)cc42)C3=CN1Cc1ccc(O)cc1 [Compound 6]
7.24

Moving on to COc1ccc2c(c1)[C@@]13CCNC[C@H]1[C@@H](C2)N(CC1CC1)CC3 [Compound 10]
5.66

Moving on to NC(=O)CN1C[C@H]2[C@H]3Cc4ccc(O)cc4[C@@]2(CCN3CC2CC2)CC1=O [Compound 4]
8.04

====

# study.system: μ-opioid receptor (Homo sapiens (Human))
# experiment.notes: μ-opioid receptor radioligand dose-displacement binding assay ([3H]-diprenorphine)
Would you kindly list Ki for each of these compounds?
Output spec: scalar in nM, unitless text.

Looking for the measured Ki of O=C1C[C@]23CCN(CC4CC4)[C@H](Cc4ccc(O)cc42)[C@@H]3CN1 [Compound 7] , can you help?
5.61

Moving on to NC(=O)CN1C[C@H]2[C@H]3Cc4ccc(O)cc4[C@@]2(CCN3CC2CC2)CC1=O [Compound 4]
24.4

Moving on to O=C1C[C@]23CCN(CC4CC4)[C@H](Cc4ccc(O)cc42)C3=CN1Cc1ccc(O)cc1 [Compound 6]
22.8

Moving on to O=C(O)CN1C[C@H]2[C@H]3Cc4ccc(O)cc4[C@@]2(CCN3CC2CC2)CC1=O [Compound 8]
21.2

Moving on to O=C1C[C@]23CCN(CC4CC4)[C@H](Cc4ccc(O)cc42)[C@@H]3CN1Cc1ccc(O)cc1 [Compound 5]
12.8

Moving on to Oc1ccc2c(c1)[C@@]13CCNC[C@H]1[C@@H](C2)N(CC1CC1)CC3 [Compound 13]
50.4

====

# study.system: κ opioid receptor (Homo sapiens (Human), UniProt P41145)
# experiment.notes: κ-opioid receptor [35S]GTPγS functional assay, U-2 OS cells
# Format: biochemical
# condition.parameters: relative to U69,593
Would you kindly list Emax for each of these compounds?
Output spec: scalar in %, unitless text.

Looking for the measured Emax of "O=C(O)CN1CC[C@]23CCN(CC4CC4)[C@H](Cc4ccc(O)cc42)[C@@H]3C1" , can you help?
108

Moving on to "NC(=O)CN1C[C@H]2[C@H]3Cc4ccc(O)cc4[C@@]2(CCN3CC2CC2)CC1=O"
104

Moving on to "NC(=O)CN1CC[C@]23CCN(CC4CC4)[C@H](Cc4ccc(O)cc42)[C@@H]3C1"
102

Moving on to "O=C1C[C@]23CCN(CC4CC4)[C@H](Cc4ccc(O)cc42)[C@@H]3CN1"
106

Moving on to "C[C@H](N)C(=O)N1CC[C@]23CCN(CC4CC4)[C@H](Cc4ccc(O)cc42)[C@@H]3C1"
104

Moving on to "Oc1ccc(CN2CC[C@]34CCN(CC5CC5)[C@H](Cc5ccc(O)cc53)[C@@H]4C2)cc1"
110
